Give measured relative viability for each item. Keep answers brief.
test system: NCI-H838; assay: relative viability (nuclei count vs DMSO), 5 days (fraction); higher = more cells survive; conditions: first compound 0.01 µM
One number for each entry.

These recorded examples may help you get a feel for the data.
compound="CCN(CC)CCCCNc1ncc2cc(-c3cc(OC)cc(OC)c3)c(NC(=O)NC(C)(C)C)nc2n1 + NC(=O)Nc1cc(-c2cccc(F)c2)sc1C(=O)N[C@H]1CCCNC1 [AZD7762] (partner 0.2 µM)" meas_value=0.734
compound="O=c1cc(N2CCOCC2)oc2c(-c3cccc4c3sc3ccccc34)cccc12 + Cc1nc(Nc2ncc(C(=O)Nc3c(C)cccc3Cl)s2)cc(N2CCN(CCO)CC2)n1 [Dasatinib] (partner 0.075 µM)" meas_value=0.278
compound="O=c1cc(N2CCOCC2)oc2c(-c3cccc4c3sc3ccccc34)cccc12 + Nc1nc2[nH]cc(CCc3ccc(C(=O)N[C@@H](CCC(=O)O)C(=O)O)cc3)c2c(=O)[nH]1 [Pemetrexed] (partner 0.2 µM)" meas_value=0.255
compound="CCN(CC)CCCCNc1ncc2cc(-c3cc(OC)cc(OC)c3)c(NC(=O)NC(C)(C)C)nc2n1 + Nc1ncn([C@H]2C[C@H](O)[C@@H](CO)O2)c(=O)n1 [Decitabine] (partner 2 µM)" meas_value=0.481

# map each compound to its relative viability
1. CCN(CC)CCCCNc1ncc2cc(-c3cc(OC)cc(OC)c3)c(NC(=O)NC(C)(C)C)nc2n1 + CS(=O)(=O)N1CCN(Cc2cc3nc(-c4cccc5[nH]ncc45)nc(N4CCOCC4)c3s2)CC1 [Pictilisib] (partner 1 µM)
2. O=c1cc(N2CCOCC2)oc2c(-c3cccc4c3sc3ccccc34)cccc12 + NC(=O)Nc1cc(-c2cccc(F)c2)sc1C(=O)N[C@H]1CCCNC1 [AZD7762] (partner 0.2 µM)
3. O=c1cc(N2CCOCC2)oc2c(-c3cccc4c3sc3ccccc34)cccc12 + C[C@@H](Oc1cc(-c2cnn(C3CCNCC3)c2)cnc1N)c1c(Cl)ccc(F)c1Cl [Crizotinib] (partner 1 µM)
4. CCN(CC)CCCCNc1ncc2cc(-c3cc(OC)cc(OC)c3)c(NC(=O)NC(C)(C)C)nc2n1 + Nc1nc2[nH]cc(CCc3ccc(C(=O)N[C@@H](CCC(=O)O)C(=O)O)cc3)c2c(=O)[nH]1 [Pemetrexed] (partner 0.2 µM)
5. O=c1cc(N2CCOCC2)oc2c(-c3cccc4c3sc3ccccc34)cccc12 + CC(C)C[C@H](NC(=O)[C@H](Cc1ccccc1)NC(=O)c1cnccn1)B(O)O [Bortezomib] (partner 0.002 µM)

1: 0.441; 2: 0.918; 3: 0.876; 4: 0.242; 5: 0.779

====

tested on: 201T; experiment: relative viability (nuclei count vs DMSO), 5 days (fraction); higher = more cells survive; conditions: first compound 0.03162 µM
Give measured relative viability for each item. Keep answers brief.
One number for each entry.

molecule="O=c1cc(N2CCOCC2)oc2c(-c3cccc4c3sc3ccccc34)cccc12 + O=C(c1cc(Cc2n[nH]c(=O)c3ccccc23)ccc1F)N1CCN(C(=O)C2CC2)CC1 [Olaparib] (partner 8 µM)" target=201T meas_value=0.842
molecule="CCN(CC)CCCCNc1ncc2cc(-c3cc(OC)cc(OC)c3)c(NC(=O)NC(C)(C)C)nc2n1 + CS(=O)(=O)N1CCN(Cc2cc3nc(-c4cccc5[nH]ncc45)nc(N4CCOCC4)c3s2)CC1 [Pictilisib] (partner 1 µM)" target=201T meas_value=0.663
molecule="O=c1cc(N2CCOCC2)oc2c(-c3cccc4c3sc3ccccc34)cccc12 + CC(=O)Nc1cccc(-n2c(=O)n(C3CC3)c(=O)c3c(Nc4ccc(I)cc4F)n(C)c(=O)c(C)c32)c1 [Trametinib] (partner 0.02 µM)" target=201T meas_value=0.683
molecule="CCN(CC)CCCCNc1ncc2cc(-c3cc(OC)cc(OC)c3)c(NC(=O)NC(C)(C)C)nc2n1 + Nc1ncn([C@H]2C[C@H](O)[C@@H](CO)O2)c(=O)n1 [Decitabine] (partner 2 µM)" target=201T meas_value=0.847
molecule="O=c1cc(N2CCOCC2)oc2c(-c3cccc4c3sc3ccccc34)cccc12 + CCNC(=O)c1noc(-c2cc(C(C)C)c(O)cc2O)c1-c1ccc(CN2CCOCC2)cc1 [Luminespib] (partner 0.01 µM)" target=201T meas_value=1.1

# map each molecule to its relative viability
1. CCN(CC)CCCCNc1ncc2cc(-c3cc(OC)cc(OC)c3)c(NC(=O)NC(C)(C)C)nc2n1 + N=C(N)NC(=N)NCCc1ccccc1 [Phenformin] (partner 250 µM)
2. O=c1cc(N2CCOCC2)oc2c(-c3cccc4c3sc3ccccc34)cccc12 + CC(C)C[C@H](NC(=O)[C@H](Cc1ccccc1)NC(=O)c1cnccn1)B(O)O [Bortezomib] (partner 0.002 µM)
3. CCN(CC)CCCCNc1ncc2cc(-c3cc(OC)cc(OC)c3)c(NC(=O)NC(C)(C)C)nc2n1 + CC(=O)Nc1cccc(-n2c(=O)n(C3CC3)c(=O)c3c(Nc4ccc(I)cc4F)n(C)c(=O)c(C)c32)c1 [Trametinib] (partner 0.02 µM)
4. O=c1cc(N2CCOCC2)oc2c(-c3cccc4c3sc3ccccc34)cccc12 + Nc1nc2[nH]cc(CCc3ccc(C(=O)N[C@@H](CCC(=O)O)C(=O)O)cc3)c2c(=O)[nH]1 [Pemetrexed] (partner 0.2 µM)

1. 0.479
2. 1.09
3. 0.725
4. 0.316

====

tested on: UMC-11; assay: relative viability (nuclei count vs DMSO), 5 days (fraction); higher = more cells survive; settings: first compound 0.03162 µM
metric: relative viability
Give bare numbers.

compound="CCN(CC)CCCCNc1ncc2cc(-c3cc(OC)cc(OC)c3)c(NC(=O)NC(C)(C)C)nc2n1 + CS(=O)(=O)N1CCN(Cc2cc3nc(-c4cccc5[nH]ncc45)nc(N4CCOCC4)c3s2)CC1 [Pictilisib] (partner 1 µM)" meas_value=0.806

# input for lookup
State the recorded relative viability for this entry: CCN(CC)CCCCNc1ncc2cc(-c3cc(OC)cc(OC)c3)c(NC(=O)NC(C)(C)C)nc2n1 + CC(=O)Nc1cccc(-n2c(=O)n(C3CC3)c(=O)c3c(Nc4ccc(I)cc4F)n(C)c(=O)c(C)c32)c1 [Trametinib] (partner 0.02 µM)
0.483

====

system: NCI-H1437; experiment: relative viability (nuclei count vs DMSO), 5 days (fraction); higher = more cells survive; details: first compound 1 µM
metric: relative viability

These recorded examples may help you get a feel for the data.
compound="CCN(CC)CCCCNc1ncc2cc(-c3cc(OC)cc(OC)c3)c(NC(=O)NC(C)(C)C)nc2n1 + C[C@]1(O)C[C@@H](c2nc(-c3ccc4ccc(-c5ccccc5)nc4c3)c3c(N)nccn32)C1 [Linsitinib] (partner 1 µM)" meas_value=0.817
compound="O=c1cc(N2CCOCC2)oc2c(-c3cccc4c3sc3ccccc34)cccc12 + Nc1nc2[nH]cc(CCc3ccc(C(=O)N[C@@H](CCC(=O)O)C(=O)O)cc3)c2c(=O)[nH]1 [Pemetrexed] (partner 0.2 µM)" meas_value=0.314
compound="CCN(CC)CCCCNc1ncc2cc(-c3cc(OC)cc(OC)c3)c(NC(=O)NC(C)(C)C)nc2n1 + CS(=O)(=O)N1CCN(Cc2cc3nc(-c4cccc5[nH]ncc45)nc(N4CCOCC4)c3s2)CC1 [Pictilisib] (partner 1 µM)" meas_value=0.392
compound="CCN(CC)CCCCNc1ncc2cc(-c3cc(OC)cc(OC)c3)c(NC(=O)NC(C)(C)C)nc2n1 + CC1(C)CCC(c2ccc(Cl)cc2)=C(CN2CCN(c3ccc(C(=O)NS(=O)(=O)c4ccc(N[C@H](CCN5CCOCC5)CSc5ccccc5)c(S(=O)(=O)C(F)(F)F)c4)cc3)CC2)C1 [Navitoclax] (partner 0.5 µM)" meas_value=1.04
compound="CCN(CC)CCCCNc1ncc2cc(-c3cc(OC)cc(OC)c3)c(NC(=O)NC(C)(C)C)nc2n1 + Nc1ncn([C@H]2C[C@H](O)[C@@H](CO)O2)c(=O)n1 [Decitabine] (partner 2 µM)" meas_value=0.578
compound="CCN(CC)CCCCNc1ncc2cc(-c3cc(OC)cc(OC)c3)c(NC(=O)NC(C)(C)C)nc2n1 + COc1cccc2cc(-c3nc([C@H]4CC[C@H](C(=O)O)CC4)n4ncnc(N)c34)[nH]c12 [OSI-027] (partner 0.5 µM)" meas_value=0.857

# input for lookup
What measured relative viability is associated with CCN(CC)CCCCNc1ncc2cc(-c3cc(OC)cc(OC)c3)c(NC(=O)NC(C)(C)C)nc2n1 + NC(=O)Nc1cc(-c2cccc(F)c2)sc1C(=O)N[C@H]1CCCNC1 [AZD7762] (partner 0.2 µM) on NCI-H1437?
1.04

====

tested on: COR-L 105; assay: relative viability (nuclei count vs DMSO), 5 days (fraction); higher = more cells survive; details: first compound 2 µM
metric: relative viability
One number for each entry.

These recorded examples may help you get a feel for the data.
compound="COCC1(CO)C(=O)C2CCN1CC2 (stereo not drawn) [PRIMA-1MET] + CC(=O)Nc1cccc(-n2c(=O)n(C3CC3)c(=O)c3c(Nc4ccc(I)cc4F)n(C)c(=O)c(C)c32)c1 [Trametinib] (partner 0.02 µM)" meas_value=0.378
compound="COCC1(CO)C(=O)C2CCN1CC2 (stereo not drawn) [PRIMA-1MET] + CCNC(=O)c1noc(-c2cc(C(C)C)c(O)cc2O)c1-c1ccc(CN2CCOCC2)cc1 [Luminespib] (partner 0.01 µM)" meas_value=0.845

What measured relative viability is associated with COCC1(CO)C(=O)C2CCN1CC2 (stereo not drawn) [PRIMA-1MET] + COc1cc2c(Oc3ccc(NC(=O)C4(C(=O)Nc5ccc(F)cc5)CC4)cc3F)ccnc2cc1OCCCN1CCOCC1 [Foretinib] (partner 0.25 µM) on COR-L 105?
1.17
